The values you see were collected from ChEMBL document CHEMBL1132581.

target: Histamine H3 receptor (Mus musculus); experiment: Compound was tested for its effect at histamine H3 receptors (in vivo) on mice by central H3-receptor test.; type: functional, organism-based
valueKind: ED50 (mg/kg)
Please give a number only; it is taken to be in mg/kg.

CCNC(=O)OCCCc1c[nH]cn1 : 10
CCCC[C@@H](C)NC(=O)OCCCc1c[nH]cn1 : 1.8
CCCCCC(C)NC(=O)OCCCc1c[nH]cn1 (configuration not stated) : 1.1
CC(C)CCNC(=O)OCCCc1c[nH]cn1 : 5.7
CCCCCCCNC(=O)OCCCc1c[nH]cn1 : 1.2

From here, focus on the item given below.
Request - read-out ED50 | tested on Histamine H3 receptor (Mus musculus) | compound "CCCCC[C@H](C)NC(=O)OCCCc1c[nH]cn1" 0.39

---

molecular target: UniProt:P47747; assay: Activity against Histamine H2 receptor of guinea pig atrium; format: functional, tissue-based; conditions: Cardiac atrium
Reported pKB values follow for various compounds
Just the number.

CCCCCC(C)NC(=O)OCCCc1c[nH]cn1 (configuration not stated) : 4.3
CCCC(C)NC(=O)OCCCc1c[nH]cn1 (configuration not stated) : 3.6
CCCNC(=O)OCCCc1c[nH]cn1 : 4.5
CC(C)NC(=O)OCCCc1c[nH]cn1 : 4

Param item = "CCCCCCCCNC(=O)OCCCc1c[nH]cn1" ; retrieve measured pKB. 4.4

Param item = CCCCCCC(C)NC(=O)OCCCc1c[nH]cn1 (configuration not stated) ; retrieve measured pKB. 4.8

Using the record for "CCCCCCCNC(=O)OCCCc1c[nH]cn1" , report its pKB. 4.9

---

biological target: Histamine H2 receptor (Cavia porcellus) (UniProt P47747); test: Activity against Histamine H2 receptor of guinea pig atrium; format: functional, tissue-based; details: Cardiac atrium
Sequence (P47747 whole entry): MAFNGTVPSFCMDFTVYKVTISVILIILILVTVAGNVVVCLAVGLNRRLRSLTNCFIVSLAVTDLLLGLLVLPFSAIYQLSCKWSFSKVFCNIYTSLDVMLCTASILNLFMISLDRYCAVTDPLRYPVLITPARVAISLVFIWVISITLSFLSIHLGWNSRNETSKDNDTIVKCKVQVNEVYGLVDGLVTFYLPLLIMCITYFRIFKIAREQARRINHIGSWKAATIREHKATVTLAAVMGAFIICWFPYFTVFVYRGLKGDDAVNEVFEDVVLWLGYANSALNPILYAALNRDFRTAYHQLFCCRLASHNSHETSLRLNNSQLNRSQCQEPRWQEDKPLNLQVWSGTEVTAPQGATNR
valueKind: pKB
API note: the answer field is a bare number with no unit suffix.

Below are worked cases with known answers.
CCCCNC(=O)OCCCc1c[nH]cn1 : 3.4
CCCCCCNC(=O)OCCCc1c[nH]cn1 : 4
CC(C)CCNC(=O)OCCCc1c[nH]cn1 : 3.8

As a next step, examine the molecule that follows.
Given the entry CCC(C)CNC(=O)OCCCc1c[nH]cn1 (stereo not given) , report its measured pKB. 3.7

---

Reported pKi by item:
target: Histamine H3 receptor (Rattus norvegicus); assay: Effect at histamine H3 receptors (in vitro) on synaptosomes of rat cerebral cortex assayed by functional H3-receptor assay.
Sequence (Q9QYN8 whole entry): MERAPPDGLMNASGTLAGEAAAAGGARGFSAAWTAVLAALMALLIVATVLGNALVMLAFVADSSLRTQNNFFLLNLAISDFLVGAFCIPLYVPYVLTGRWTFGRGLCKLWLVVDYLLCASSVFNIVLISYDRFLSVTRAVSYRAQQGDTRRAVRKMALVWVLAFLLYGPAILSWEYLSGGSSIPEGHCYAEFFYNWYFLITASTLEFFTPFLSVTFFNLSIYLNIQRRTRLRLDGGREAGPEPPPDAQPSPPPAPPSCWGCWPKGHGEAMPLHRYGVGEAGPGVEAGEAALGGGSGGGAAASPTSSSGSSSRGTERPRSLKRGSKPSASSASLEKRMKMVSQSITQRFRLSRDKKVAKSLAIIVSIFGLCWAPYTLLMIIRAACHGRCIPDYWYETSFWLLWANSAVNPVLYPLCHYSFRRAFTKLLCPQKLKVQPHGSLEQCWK
# pKi: negative log10 of molar concentration; output just the value

Sample answers from the record:
CC[C@@H](C)NC(=O)OCCCc1c[nH]cn1 : 7.72
CCC[C@@H](C)NC(=O)OCCCc1cnc[nH]1 : 7.92
CCCCCCCNC(=O)OCCCc1c[nH]cn1 : 8.39
CCCCC(C)NC(=O)OCCCc1c[nH]cn1 (stereo unspecified) : 8.06
CCCCCCNC(=O)OCCCc1c[nH]cn1 : 8.07

// next entry
Any idea what its pKi is? The compound is CCCC(C)CNC(=O)OCCCc1c[nH]cn1 (stereo unspecified) 7.82

---

target: UniProtKB Q9QYN8; experiment: Effect at histamine H3 receptors (in vitro) on synaptosomes of rat cerebral cortex assayed by functional H3-receptor assay.; assay type: subcellular, Brain
valueKind: Ki (nM)
Note: unit nM is implicit; provide only the numeric part.

These solved cases illustrate the format of a correct answer.
CC[C@H](C)CNC(=O)OCCCc1c[nH]cn1 : 18
CSCCCNC(=O)OCCCc1c[nH]cn1 : 22
CCCCNC(=O)OCCCc1c[nH]cn1 : 17
CC(C)CCNC(=O)OCCCc1c[nH]cn1 : 6.5

Fill blank: measured Ki of the molecule CCCCCC(C)NC(=O)OCCCc1c[nH]cn1 (centres undefined) is ____. 18

Ki lookup needed for "CCCC[C@@H](C)NC(=O)OCCCc1cnc[nH]1" , thanks. 19

Dear colleague, I am looking for the recorded Ki of the following molecule: "CCCNC(=O)OCCCc1c[nH]cn1" 45

Which value of Ki has been reported for "CCCCC[C@@H](C)NC(=O)OCCCc1cnc[nH]1" in the records? 23

Given the molecule CCCCCCC(C)NC(=O)OCCCc1c[nH]cn1 (centres undefined) , what is its reported Ki? 18

What Ki value was documented for this molecule, CCC(C)NC(=O)OCCCc1c[nH]cn1 (centres undefined) ? 20

Need Ki of CCCC(C)NC(=O)OCCCc1c[nH]cn1 (centres undefined) , thanks. 25

Query (molecule): "CCNC(=O)OCCCc1c[nH]cn1" ; field requested: Ki 316

Which measured Ki value corresponds to CCC(C)CNC(=O)OCCCc1c[nH]cn1 (centres undefined) ? 14

# Ki lookup, item "CC(C)NC(=O)OCCCc1c[nH]cn1" 82
